- STUDY_SYSTEM: IN-LEDGF/p75 interaction (Human immunodeficiency virus type 1 group M subtype B, UniProt P12497, C1427S/F1332K)
- Construct: His6 (C); made in house; host or cells: E. coli
- ASSAY_NAME: biochemical
- Format: binding, HIV-1
- MEASUREMENT_CONDITIONS: HTRF, 50 μM final concentration
PARAMETER: inhibitory activity against IN-LEDGF/p75 interaction (in words)

> print(dat)
                                    compound    experimental.result
 1  COc1cc2oc(-c3ccc(O)c(O)c3)c(OC)c(=O)c2c(O)c1OC  effectively inhibited
 2  COc1c(O)cc2c(c1O)C(=O)CC(c1ccc(O)cc1)O2 (stereo not shown)       loss of activity
 3  CC(C)=CCc1cc(-c2oc3cc(O)cc(O)c3c(=O)c2O)ccc1O                reduced
 4  O=C1c2c(O)cc(O)cc2OC(c2cc(O)c(O)c(O)c2)[C@H]1O (stereo partly shown)    efficiently blocked
 5  COc1cc(O)c2c(c1)OC(c1ccc(O)cc1)CC2=O (stereo not shown)       loss of activity
 6  O=C1c2ccc(O)cc2OC(c2cc(O)c(O)c(O)c2)C1O (stereo not shown)    efficiently blocked
 7  O=c1c(O)c(-c2ccc(O)c(O)c2)oc2cc(O)cc(O)c12  effectively inhibited
 8  COc1cc(O)c2c(=O)c(OC)c(-c3ccc(O)c(OC)c3)oc2c1                reduced
 9  COc1cc(-c2oc3cc(O)c(OC)c(O)c3c(=O)c2OC)ccc1O                reduced
10    COc1ccc(-c2oc3cc(O)cc(O)c3c(=O)c2O)cc1                reduced
11  COc1cc(C2CC(=O)c3c(cc(O)c(OC)c3O)O2)cc(O)c1OC (stereo not shown)       loss of activity
12   COc1cc(-c2oc3cc(O)cc(O)c3c(=O)c2O)ccc1O                reduced
13  CC(C)=CCc1cc(-c2oc3cc(O)c(CC=C(C)C)c(O)c3c(=O)c2O)ccc1O                reduced
14   COc1ccc(-c2oc3cc(O)cc(O)c3c(=O)c2O)cc1O                reduced
15  COc1c(O)cc(O)c2c1O[C@@H](c1ccccc1O)CC2=O       loss of activity

---

- STUDY_SYSTEM: IN-LEDGF/p75 interaction (Human immunodeficiency virus type 1 group M subtype B, UniProt P12497, C1427S/F1332K)
- Construct: His6 (C); made in house; host or cells: E. coli
- ASSAY_NAME: biochemical
- Assay type: binding, HIV-1
pIC50: −log10 of the molar value.
PARAMETER: pIC50

> print(dat)
                                   molecule  experimental.result
1  Cc1nc2ccccc2c(-c2ccc3c4c(ccnc24)CCO3)c1[C@H](OC(C)(C)C)C(=O)O [BI224436, reference compound]                 7.73

---

- STUDY_SYSTEM: IN (Human immunodeficiency virus type 1 group M subtype B, UniProt P12497, C1427S/F1332K)
- Construct: His6 (C)
- ASSAY_NAME: Biolayer interferometry (BLI) binding assay
- MEASUREMENT_CONDITIONS: 30 °C, PBS with 0.01% Tween-20
pKd: −log10 of the molar value.
Some compounds, each annotated with its measured pKd.
PARAMETER: pKd

> print(dat)
                                   compound  experimental.result
1     COc1cc(O)cc(O)c1C(=O)/C=C/c1ccc(O)cc1                 5.57
2  Oc1cc(O)c2c(c1)O[C@H](c1ccc(O)c(O)c1)[C@H](O)C2 [epicatechin]                 5.77
3  O=c1c(O)c(-c2cc(O)c(O)c(O)c2)oc2cc(O)cc(O)c12                 6.00
4  O=C1c2ccc(O)cc2OC(c2cc(O)c(O)c(O)c2)C1O (centres unmarked) [dihydrorobinetin]                 5.85
5   O=c1cc(-c2ccc(O)c(O)c2)oc2cc(O)cc(O)c12                 5.89
